# assay.remarks: yeast display, Sf9 membrane polyspecificity reagent, FACS + sequencing; frameworks hold sequencing errors
measured.endpoint: polyreactivity (PSR sort gate)

Example entries and their recorded answers appear below.
QVQLVESGGGLVQAGGSLRLSCAASGSTFSIYAMGWYRQAPGKERELVAAISSDSTYYADSVKGRFTISRDNAKNSVYLQMNSLKPEDTAVYYCAADPYFPKYYYWGQGTQVTVSS    low polyreactivity
EVQQVESGGGLVQPGGSLRLSCAASGYIYSRYRMGWCRQAPGKGREFVAAISGGSSTNYADSVKGRFTISRDNSKITVYLQMKSLRAEDTAVYYCAAYMIDSDPRVFWGQGTQVNVSS    low polyreactivity
QVQLVESVGGLVQAGASLRLSCAASGITFVYYALGWYRQAPGKERELVAAITSTGGSTYYADSVKGRFTISRDNAKNTVYLQMNSLKPEDTSVYYCAAVPRGTQGAMDYWGQGTQVTVSS    low polyreactivity
QVQLVESGGGLVQAGGSLRLSCAASGSTFNYYAMGGNRQAPGKESELVAAISTRGSSTSYADSVKGRFTISRDNAKNTVYLQMNSLKPEDTAVYYCTAPRWSPRRYGYWGQGTQVTVSS    high polyreactivity

Endpoint output: polyreactivity (PSR sort gate) of QVQLVESGGGLVQAGVSLRLSCAASGSTFAFYDMGWYRQAPGKERELVAGISSSGSTYYADSVKGPFTISRDNAKNTVYLQMNSLKPEDTAVYYCAADAPYLVPYGWWDYDYDYWGQGTQVTVSS . Value?
low polyreactivity

And QVQLVESGVGLVQAGGSLRLTCAASGRIFVRNAMGWYRQAPGKEMELVARITSSTGRTYYADSVKGRFTISRDNAKNTVYLQFTSLKPEDTAVYYCAVRYFYQFWAYDYWGKGTQVTVSS ?
high polyreactivity

And QVQLVESAGGLVQAGGSLSLICAASGIIFGGNAMGWSRQAPGKERELVAAISRSGGSTYYADSVKGRFTISRDNAKNTVYLQMTSLKPEDTAVYYCNAYYRYFRSIYDSCGQGTQVTVSS ?
high polyreactivity

And QVQLQESGGGLVQVGGSQRLSCAASGNIFYNYAMVWYRNAQGKEREFDATIKNGTSINYADSVKGRFTISRDNAKNTVYLQMNSLTPEDTAVYYCAADLSWTDNLFYWGQGTQVTVSS ?
low polyreactivity

And QVQLVESGGGLVQAGGSLRISCAASGRTFPCKAMGWYRQAPGKERELVATITWSSGRTHYADSVKGRFTISRDNAKNTVYLQMNSLKPEDSAVYYCAAKWIVAVVGFYYWGQGTQVTVSS ?
low polyreactivity

And QGQLVESGGGFVQAGGSLRLSCAASGSTFRYYTMGWYRQAPGKEREFVAAITSSGTSTYYADSVKGRFTISRDIAKNTVYLQMNSLKPEDTAVYYCNKVGIYGSRSRYDSWGQGTQVTVSS ?
high polyreactivity

And QVHLVESGGGLVQAGGSLRLSCAASGSTFETNAMGWYRQSPGKERELVAAIRWSTGNTYYADSVKGRFTISRDNAKNTVYLQMNSLKPEDTAVYYCAAYKGKHYKEGYWGQGTQVTVSS ?
low polyreactivity
